- System: RPMI-8226 leukemia
- Assay method text: NCI tumour cell line growth inhibition, 48 h
TGI by entry:

Recorded TGI, per entry:
| Compound | Tested system | Observed value |
| --- | --- | --- |
| CC(C)(C)N1CC1CNC(=O)C(=O)NCC1CN1C(C)(C)C (stereo unspecified) | RPMI-8226 leukemia | > 18.3 µM |
| Cc1cc(S(=O)(=O)Nc2nc3ccccc3c(=O)n2Cc2ccco2)c(S)cc1Cl | RPMI-8226 leukemia | > 100 µM |
| O=C1CCc2cc(Br)ccc2O1 | RPMI-8226 leukemia | > 100 µM |
| CCOC(=O)/C=C(/C(=O)OCC)n1ccc(=O)n(Cc2cn(CCCCOC(C)=O)nn2)c1=O | RPMI-8226 leukemia | > 100 µM |
| CC(CC(=O)N1C2CC3CCC2(CS1(=O)=O)C3(C)C)[Si](C)(C)C (stereo unspecified) | RPMI-8226 leukemia | > 100 µM |

Asked: I have this compound here, Cc1cn(C2CC(O)C(Cn3nncc3Cn3cnc4c(N)ncnc43)O2)c(=O)[nH]c1=O (stereo unspecified) , and I need its recorded TGI.
Given back: > 100 µM

Asked: I would be grateful if you could share the reported TGI for COc1ccc(/C=C2/SC(=Nc3ccccc3)N(NC(=O)Cc3ccccc3)C2=O)cc1 .
Given back: > 100 µM

Asked: // lookup TGI for Nc1c(F)c(F)c2c(c1F)N(CCCCCl)c1ccccc1S2
Given back: > 100 µM

Asked: Look up TGI: Cc1n[nH]c(=O)n1/N=C/c1ccco1
Given back: > 100 µM

Asked: I have this compound here, CC1=C2CC[C@@]3(C)C(=CCC3O)C2(C)CCC1=O (stereo partly specified) , and I need its recorded TGI.
Given back: > 100 µM

Asked: Quick one: TGI for C[C@@H](NC1CCCC[C@@H]1O)c1ccccc1 (stereo partly specified) ?
Given back: > 100 µM

----------
- Test system: A498 renal
- Assay method text: NCI tumour cell line growth inhibition, 48 h
Please note: 1 applies when TGI is 20 µM or greater, and 0 applies otherwise.

Solved entries:
| Compound | Cat |
| --- | --- |
| c1ccc2cc(C3NCCc4[nH]cnc43)ccc2c1 (stereo not drawn) | 1 |
| CC(=O)NC1C(OCc2ccccc2)OC(CO)C(O)C1OCC(=O)NC(C(=O)NC(CCC(=O)NCCCCCC(=O)Nc1ccc2c(c1)CN1C(=O)c3ccccc3C1=N2)C(N)=O)C(C)C (stereo not drawn) | 1 |
| O=C1/C(=C/c2ccc(Cl)cc2)CN(Cc2cn(CCCNc3ccnc4cc(Cl)ccc34)nn2)C/C1=C\c1ccc(Cl)cc1 | 0 |

Would you kindly look at the next entry?
Asked: Is the recorded value of TGI equal to or greater than 20 µM for this compound? Cn1c2c(c3ccccc31)CCN1C[C@@H]3CCCC[C@H]3C[C@@H]21
Given back: 0

----------
Entries annotated with measured TGI
- Test system: SF-268 CNS
- Assay method text: NCI tumour cell line growth inhibition, 48 h

Solved entries:
| Molecule | Property label | Observed value |
| --- | --- | --- |
| O=C(O)c1ccc(CSc2nc3ccccc3[nH]2)cc1 | TGI | > 100 µM |
| COc1ccc(S(=O)(=O)N/N=C(\C)CN2C(=O)c3ccccc3C2=O)cc1OC | TGI | > 100 µM |
| CC(C)CC(N)C(=O)NC(CNC(CCC(N)=O)C(=O)NC(CC(C)C)C(=O)NC(CC(C)C)C(=O)O)Cc1ccc2ccccc2c1 (stereo not drawn) | TGI | > 10 µM |
| Cn1c2c(c3ccccc31)CCN1C[C@@H]3CCCC[C@H]3C[C@@H]21 | TGI | > 40.2 µM |
| CC(C)(C)OC(=O)N(O)CCCn1cnc2c(NC3CC3)ncnc21 | TGI | > 100 µM |

Asked: Requested field: TGI. Item: CCOC(=O)CCc1c(C)c2c(OC)cc(OC)cc2oc1=O
Given back: > 100 µM

Asked: Sample COc1cc2c(cc1NC(=O)c1ccccc1)c1c(n2S(=O)(=O)c2ccccc2)CCN(S(=O)(=O)c2ccccc2)C1 — what was its TGI?
Given back: > 100 µM

Asked: TGI lookup needed for O=C1CCc2cc(Br)ccc2O1 , thanks.
Given back: > 100 µM
